Catalogue of growth at 1 µM readings, one per entry.
Test system: UACC-62
Test: Cytotoxicity against human UACC62 cells assessed as cell growth at 1 uM after 48 hrs by sulforhodamine B assay relative to control
Type: functional
Conditions: UACC-62, 48 h, read-out: Activity

| Test Smiles | Target Entity | growth at 1 µM |
| --- | --- | --- |
| COc1ccc(C(=O)/C=C/c2cc(-c3cc(OC)c(OC)c(OC)c3)n[nH]2)cc1OC | UACC-62 | 95% |
| COc1cc(-c2cc(/C=C/C(=O)c3ccc(N)cc3)[nH]n2)cc(OC)c1OC | UACC-62 | 86% |
| COc1cc(-c2cc(/C=C/C(=O)c3ccc(F)c(F)c3)[nH]n2)cc(OC)c1OC | UACC-62 | 88% |
| COc1cc(C(=O)/C=C/c2cc(-c3cc(OC)c(OC)c(OC)c3)n[nH]2)cc(OC)c1OC | UACC-62 | 90% |

----------
Test system: CAKI-1
Assay: Cytotoxicity against human Caki1 cells assessed as growth inhibition after 48 hrs by sulforhodamine B assay
Format: functional
Conditions: CAKI-1, 48 h
Endpoint Label: LC50 (µM)

| Test Smiles | Comparison Sign | Value |
| --- | --- | --- |
| COc1cc2c(cc1OC)C(=O)/C(=C/c1cc(-c3ccc4c(c3)OCO4)n[nH]1)C2 | = | 6 |
| COc1cc(C(=O)/C=C/c2cc(-c3ccc4c(c3)OCO4)n[nH]2)cc(OC)c1OC | = | 26.1 |
| COc1cc(-c2cc(/C=C/C(=O)c3ccc(Cl)c(Cl)c3)[nH]n2)cc(OC)c1OC | > | 100 |
| COc1ccc(C(=O)/C=C/c2cc(-c3cc(OC)c(OC)c(OC)c3)n[nH]2)cc1OC | = | 19.4 |

----------
Test system: COLO 205
Test: Cytotoxicity against human COLO205 cells assessed as growth inhibition after 48 hrs by sulforhodamine B assay
Format: functional
Details: COLO 205, 48 h
Quick reference: TGI of the listed items.
Endpoint Label: TGI (µM)

| Test Smiles | Target Entity | Endpoint Label | Value |
| --- | --- | --- | --- |
| COc1cc(C(=O)/C=C/c2cc(-c3ccc4c(c3)OCO4)n[nH]2)cc(OC)c1OC | COLO 205 | TGI | 4.66 |
| COc1ccc(C(=O)/C=C/c2cc(-c3cc(OC)c(OC)c(OC)c3)n[nH]2)cc1 | COLO 205 | TGI | 3.24 |
| COc1cc(-c2cc(/C=C/C(=O)c3ccc(Cl)c(Cl)c3)[nH]n2)cc(OC)c1OC | COLO 205 | TGI | 15.8 |
| COc1cc(C(=O)/C=C/c2cc(-c3cc(OC)c(OC)c(OC)c3)n[nH]2)cc(OC)c1OC | COLO 205 | TGI | 3.13 |

----------
System: SF-268
Assay: Cytotoxicity against human SF268 cells assessed as cell growth at 10 uM after 48 hrs by sulforhodamine B assay relative to control
Assay type: functional
Conditions: SF-268, 48 h, read-out: Activity
Property: growth at 10 µM; scope: individual molecules
Endpoint Label: growth at 10 µM (%)

| Test Smiles | Unit Abbrev | Value |
| --- | --- | --- |
| COc1ccc(C(=O)/C=C/c2cc(-c3ccc4c(c3)OCO4)n[nH]2)cc1OC | % | -12 |
| COc1cc(-c2cc(/C=C/C(=O)c3ccc(Cl)c(Cl)c3)[nH]n2)cc(OC)c1OC | % | 60 |
| COc1cc2c(cc1OC)C(=O)/C(=C/c1cc(-c3ccc4c(c3)OCO4)n[nH]1)C2 | % | -75 |
| COc1ccc(C(=O)/C=C/c2cc(-c3ccc(OC)c(OC)c3)n[nH]2)cc1OC | % | -1 |
| COc1cc(-c2cc(/C=C/C(=O)c3ccc(F)c(F)c3)[nH]n2)cc(OC)c1OC | % | 17 |
| COc1cc(C(=O)/C=C/c2cc(-c3cc(OC)c(OC)c(OC)c3)n[nH]2)cc(OC)c1OC | % | -45 |

----------
Readings of growth at 0.1 µM for the listed molecules
System: COLO 205
Assay: Cytotoxicity against human COLO205 cells assessed as cell growth at 0.1 uM after 48 hrs by sulforhodamine B assay relative to control
Format: functional
Conditions: COLO 205, 48 h, read-out: Activity

| Test Smiles | growth at 0.1 µM |
| --- | --- |
| COc1cc(-c2cc(/C=C/C(=O)c3ccc(Cl)c(Cl)c3)[nH]n2)cc(OC)c1OC | 88% |
| COc1cc(C(=O)/C=C/c2cc(-c3cc(OC)c(OC)c(OC)c3)n[nH]2)cc(OC)c1OC | 102% |
| COc1ccc(-c2cc(/C=C/C(=O)c3cc(OC)c(OC)c(OC)c3)[nH]n2)cc1OC | 89% |
| COc1cc(-c2cc(/C=C/C(=O)c3ccc(F)c(F)c3)[nH]n2)cc(OC)c1OC | 98% |
| COc1cc(-c2cc(/C=C/C(=O)c3ccc(N)cc3)[nH]n2)cc(OC)c1OC | 100% |
| COc1cc2c(cc1OC)C(=O)/C(=C/c1cc(-c3ccc4c(c3)OCO4)n[nH]1)C2 | 105% |
| COc1ccc(C(=O)/C=C/c2cc(-c3cc(OC)c(OC)c(OC)c3)n[nH]2)cc1OC | 106% |

----------
growth at 0.1 µM overview
Test system: IGROV-1
Assay: Cytotoxicity against human IGROV1 cells assessed as cell growth at 0.1 uM after 48 hrs by sulforhodamine B assay relative to control
Format: functional
Settings: IGROV-1, 48 h, read-out: Activity
Endpoint Label: growth at 0.1 µM (%)

| Test Smiles | Target Entity | Endpoint Label | Value |
| --- | --- | --- | --- |
| COc1cc(-c2cc(/C=C/C(=O)c3ccc(Cl)c(Cl)c3)[nH]n2)cc(OC)c1OC | IGROV-1 | growth at 0.1 µM | 98 |
| COc1ccc(-c2cc(/C=C/C(=O)c3cc(OC)c(OC)c(OC)c3)[nH]n2)cc1OC | IGROV-1 | growth at 0.1 µM | 97 |
| COc1ccc(C(=O)/C=C/c2cc(-c3ccc4c(c3)OCO4)n[nH]2)cc1OC | IGROV-1 | growth at 0.1 µM | 93 |
| COc1ccc(C(=O)/C=C/c2cc(-c3cc(OC)c(OC)c(OC)c3)n[nH]2)cc1OC | IGROV-1 | growth at 0.1 µM | 96 |
| COc1cc(-c2cc(/C=C/C(=O)c3ccc4c(c3)OCO4)[nH]n2)cc(OC)c1OC | IGROV-1 | growth at 0.1 µM | 97 |

----------
# growth at 100 µM per entry
System: NCI-H23
Test: Cytotoxicity against human NCI-H23 cells assessed as cell growth at 100 uM after 48 hrs by sulforhodamine B assay relative to control
Type: functional
Details: NCI-H23, 48 h, read-out: Activity

| Test Smiles | Unit Abbrev | growth at 100 µM |
| --- | --- | --- |
| COc1cc(-c2cc(/C=C/C(=O)c3ccc(Cl)c(Cl)c3)[nH]n2)cc(OC)c1OC | % | 5 |
| COc1ccc(-c2cc(/C=C/C(=O)c3ccc(OC)c(OC)c3)[nH]n2)cc1 | % | -73 |
| COc1ccc(C(=O)/C=C/c2cc(-c3ccc4c(c3)OCO4)n[nH]2)cc1OC | % | -67 |
| COc1ccc(C(=O)/C=C/c2cc(-c3ccc(OC)c(OC)c3)n[nH]2)cc1OC | % | -21 |
| COc1cc(-c2cc(/C=C/C(=O)c3ccc(F)c(F)c3)[nH]n2)cc(OC)c1OC | % | -27 |

----------
Tested on: PC-3
Assay: Cytotoxicity against human PC3 cells assessed as cell growth at 1 uM after 48 hrs by sulforhodamine B assay relative to control
Type: functional
Conditions: PC-3, 48 h, read-out: Activity

| Test Smiles | Unit Abbrev | growth at 1 µM |
| --- | --- | --- |
| COc1ccc(C(=O)/C=C/c2cc(-c3cc(OC)c(OC)c(OC)c3)n[nH]2)cc1 | % | 76 |
| COc1ccc(C(=O)/C=C/c2cc(-c3cc(OC)c(OC)c(OC)c3)n[nH]2)cc1OC | % | 71 |
| COc1cc(-c2cc(/C=C/C(=O)c3ccc(N)cc3)[nH]n2)cc(OC)c1OC | % | 76 |
| COc1ccc(C(=O)/C=C/c2cc(-c3ccc4c(c3)OCO4)n[nH]2)cc1OC | % | 74 |
| COc1cc(C(=O)/C=C/c2cc(-c3ccc4c(c3)OCO4)n[nH]2)cc(OC)c1OC | % | 71 |

----------
Tested on: ACHN
Assay: Cytotoxicity against human ACHN cells assessed as cell growth at 1 uM after 48 hrs by sulforhodamine B assay relative to control
Assay type: functional
Settings: read-out: Activity
The entries below are paired with their reported growth at 1 µM.
Endpoint Label: growth at 1 µM (%)

| Test Smiles | Target Entity | Value |
| --- | --- | --- |
| COc1ccc(-c2cc(/C=C/C(=O)c3ccc(N)cc3)[nH]n2)cc1 | ACHN | 71 |
| COc1ccc(-c2cc(/C=C/C(=O)c3cc(OC)c(OC)c(OC)c3)[nH]n2)cc1OC | ACHN | 78 |
| COc1ccc(-c2cc(/C=C/C(=O)c3ccc(OC)c(OC)c3)[nH]n2)cc1 | ACHN | 82 |
| COc1cc(-c2cc(/C=C/C(=O)c3ccc(F)c(F)c3)[nH]n2)cc(OC)c1OC | ACHN | 100 |
| COc1cc(-c2cc(/C=C/C(=O)c3ccc4c(c3)OCO4)[nH]n2)cc(OC)c1OC | ACHN | 96 |
| COc1ccc(-c2cc(/C=C/C(=O)c3ccc(N)cc3)[nH]n2)cc1OC | ACHN | 88 |
| COc1ccc(C(=O)/C=C/c2cc(-c3ccc4c(c3)OCO4)n[nH]2)cc1OC | ACHN | 94 |
